Target: human TAS1R2-WT/TAS1R3-C757R (Homo sapiens, UniProt Q7RTX0+Q8TE23, C757R)
Construct: expressed in transfected cells; host or cells: HEK293T stably expressing Gα16gust44
Sequence (Q8TE23 20-839): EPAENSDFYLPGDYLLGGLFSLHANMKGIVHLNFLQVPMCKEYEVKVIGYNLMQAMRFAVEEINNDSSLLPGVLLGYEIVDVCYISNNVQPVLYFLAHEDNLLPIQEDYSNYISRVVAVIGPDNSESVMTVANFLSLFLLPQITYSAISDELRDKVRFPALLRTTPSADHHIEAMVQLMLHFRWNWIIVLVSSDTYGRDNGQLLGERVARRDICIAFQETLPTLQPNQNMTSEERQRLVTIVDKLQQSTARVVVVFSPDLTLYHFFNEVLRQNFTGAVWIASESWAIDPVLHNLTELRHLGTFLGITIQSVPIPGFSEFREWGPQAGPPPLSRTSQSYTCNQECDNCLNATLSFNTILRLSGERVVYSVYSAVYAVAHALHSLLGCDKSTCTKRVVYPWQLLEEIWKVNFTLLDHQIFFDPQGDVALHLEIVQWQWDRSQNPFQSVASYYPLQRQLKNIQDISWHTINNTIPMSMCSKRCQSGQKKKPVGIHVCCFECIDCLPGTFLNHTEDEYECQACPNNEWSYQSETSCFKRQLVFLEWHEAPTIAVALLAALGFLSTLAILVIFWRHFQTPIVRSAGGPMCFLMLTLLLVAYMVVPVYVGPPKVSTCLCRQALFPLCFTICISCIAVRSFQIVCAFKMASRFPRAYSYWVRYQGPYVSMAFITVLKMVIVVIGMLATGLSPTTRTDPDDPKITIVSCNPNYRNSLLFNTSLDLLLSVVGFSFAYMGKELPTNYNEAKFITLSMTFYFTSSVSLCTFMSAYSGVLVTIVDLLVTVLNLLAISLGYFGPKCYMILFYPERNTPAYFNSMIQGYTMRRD
Sequence (Q7RTX0 21-852 C757R): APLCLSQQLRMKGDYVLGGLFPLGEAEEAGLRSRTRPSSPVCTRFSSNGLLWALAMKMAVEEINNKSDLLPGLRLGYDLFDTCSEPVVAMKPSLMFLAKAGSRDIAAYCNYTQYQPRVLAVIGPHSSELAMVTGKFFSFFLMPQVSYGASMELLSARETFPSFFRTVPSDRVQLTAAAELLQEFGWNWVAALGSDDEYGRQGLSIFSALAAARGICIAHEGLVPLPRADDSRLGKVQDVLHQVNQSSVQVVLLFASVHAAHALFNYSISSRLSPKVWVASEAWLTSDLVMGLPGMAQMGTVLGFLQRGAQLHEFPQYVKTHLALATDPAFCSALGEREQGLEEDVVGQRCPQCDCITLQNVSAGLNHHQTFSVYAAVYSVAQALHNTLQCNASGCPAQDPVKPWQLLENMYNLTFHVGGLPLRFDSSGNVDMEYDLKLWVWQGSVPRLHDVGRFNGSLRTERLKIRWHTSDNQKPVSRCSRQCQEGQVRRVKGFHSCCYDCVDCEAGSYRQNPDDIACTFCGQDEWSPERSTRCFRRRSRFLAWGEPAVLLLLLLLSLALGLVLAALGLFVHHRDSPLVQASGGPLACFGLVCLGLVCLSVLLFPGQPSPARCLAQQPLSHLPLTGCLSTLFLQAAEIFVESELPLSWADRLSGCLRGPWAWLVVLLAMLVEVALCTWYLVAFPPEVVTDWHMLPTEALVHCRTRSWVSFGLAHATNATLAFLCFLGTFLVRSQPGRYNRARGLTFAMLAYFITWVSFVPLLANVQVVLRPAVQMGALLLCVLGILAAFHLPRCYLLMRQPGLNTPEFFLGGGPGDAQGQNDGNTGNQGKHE
Assay: Calcium mobilisation assay, TAS1R2-WT with TAS1R3 variant C757R
Type: cell-based
assay metric: R1 = Variant EC50/WT EC50

compound	test system	assay metric	numeric readout
C=C(C)[C@@H]1CC=C(/C=N/O)CC1	human TAS1R2-WT/TAS1R3-C757R (Homo sapiens, UniProt Q7RTX0+Q8TE23, C757R)	R1 = Variant EC50/WT EC50	0.6
C=C1C[C@@]23CC[C@H]4[C@@](C)(CCC[C@@]4(C)C(=O)O[C@@H]4O[C@H](CO)[C@@H](O)[C@H](O[C@@H]5O[C@H](CO)[C@@H](O)[C@H](O)[C@H]5O)[C@H]4O[C@@H]4O[C@H](CO)[C@@H](O)[C@H](O)[C@H]4O)[C@@H]2CC[C@]1(O[C@@H]1O[C@H](CO)[C@@H](O)[C@H](O[C@@H]2O[C@H](CO)[C@@H](O)[C@H](O)[C@H]2O)[C@H]1O[C@@H]1O[C@H](CO)[C@@H](O)[C@H](O)[C@H]1O)C3 [Rebaudioside M, rebaudioside M]	human TAS1R2-WT/TAS1R3-C757R (Homo sapiens, UniProt Q7RTX0+Q8TE23, C757R)	R1 = Variant EC50/WT EC50	0.6
